target or test system: UniProt Q92793
Sequence (Q92793 2-2442 limits assumed): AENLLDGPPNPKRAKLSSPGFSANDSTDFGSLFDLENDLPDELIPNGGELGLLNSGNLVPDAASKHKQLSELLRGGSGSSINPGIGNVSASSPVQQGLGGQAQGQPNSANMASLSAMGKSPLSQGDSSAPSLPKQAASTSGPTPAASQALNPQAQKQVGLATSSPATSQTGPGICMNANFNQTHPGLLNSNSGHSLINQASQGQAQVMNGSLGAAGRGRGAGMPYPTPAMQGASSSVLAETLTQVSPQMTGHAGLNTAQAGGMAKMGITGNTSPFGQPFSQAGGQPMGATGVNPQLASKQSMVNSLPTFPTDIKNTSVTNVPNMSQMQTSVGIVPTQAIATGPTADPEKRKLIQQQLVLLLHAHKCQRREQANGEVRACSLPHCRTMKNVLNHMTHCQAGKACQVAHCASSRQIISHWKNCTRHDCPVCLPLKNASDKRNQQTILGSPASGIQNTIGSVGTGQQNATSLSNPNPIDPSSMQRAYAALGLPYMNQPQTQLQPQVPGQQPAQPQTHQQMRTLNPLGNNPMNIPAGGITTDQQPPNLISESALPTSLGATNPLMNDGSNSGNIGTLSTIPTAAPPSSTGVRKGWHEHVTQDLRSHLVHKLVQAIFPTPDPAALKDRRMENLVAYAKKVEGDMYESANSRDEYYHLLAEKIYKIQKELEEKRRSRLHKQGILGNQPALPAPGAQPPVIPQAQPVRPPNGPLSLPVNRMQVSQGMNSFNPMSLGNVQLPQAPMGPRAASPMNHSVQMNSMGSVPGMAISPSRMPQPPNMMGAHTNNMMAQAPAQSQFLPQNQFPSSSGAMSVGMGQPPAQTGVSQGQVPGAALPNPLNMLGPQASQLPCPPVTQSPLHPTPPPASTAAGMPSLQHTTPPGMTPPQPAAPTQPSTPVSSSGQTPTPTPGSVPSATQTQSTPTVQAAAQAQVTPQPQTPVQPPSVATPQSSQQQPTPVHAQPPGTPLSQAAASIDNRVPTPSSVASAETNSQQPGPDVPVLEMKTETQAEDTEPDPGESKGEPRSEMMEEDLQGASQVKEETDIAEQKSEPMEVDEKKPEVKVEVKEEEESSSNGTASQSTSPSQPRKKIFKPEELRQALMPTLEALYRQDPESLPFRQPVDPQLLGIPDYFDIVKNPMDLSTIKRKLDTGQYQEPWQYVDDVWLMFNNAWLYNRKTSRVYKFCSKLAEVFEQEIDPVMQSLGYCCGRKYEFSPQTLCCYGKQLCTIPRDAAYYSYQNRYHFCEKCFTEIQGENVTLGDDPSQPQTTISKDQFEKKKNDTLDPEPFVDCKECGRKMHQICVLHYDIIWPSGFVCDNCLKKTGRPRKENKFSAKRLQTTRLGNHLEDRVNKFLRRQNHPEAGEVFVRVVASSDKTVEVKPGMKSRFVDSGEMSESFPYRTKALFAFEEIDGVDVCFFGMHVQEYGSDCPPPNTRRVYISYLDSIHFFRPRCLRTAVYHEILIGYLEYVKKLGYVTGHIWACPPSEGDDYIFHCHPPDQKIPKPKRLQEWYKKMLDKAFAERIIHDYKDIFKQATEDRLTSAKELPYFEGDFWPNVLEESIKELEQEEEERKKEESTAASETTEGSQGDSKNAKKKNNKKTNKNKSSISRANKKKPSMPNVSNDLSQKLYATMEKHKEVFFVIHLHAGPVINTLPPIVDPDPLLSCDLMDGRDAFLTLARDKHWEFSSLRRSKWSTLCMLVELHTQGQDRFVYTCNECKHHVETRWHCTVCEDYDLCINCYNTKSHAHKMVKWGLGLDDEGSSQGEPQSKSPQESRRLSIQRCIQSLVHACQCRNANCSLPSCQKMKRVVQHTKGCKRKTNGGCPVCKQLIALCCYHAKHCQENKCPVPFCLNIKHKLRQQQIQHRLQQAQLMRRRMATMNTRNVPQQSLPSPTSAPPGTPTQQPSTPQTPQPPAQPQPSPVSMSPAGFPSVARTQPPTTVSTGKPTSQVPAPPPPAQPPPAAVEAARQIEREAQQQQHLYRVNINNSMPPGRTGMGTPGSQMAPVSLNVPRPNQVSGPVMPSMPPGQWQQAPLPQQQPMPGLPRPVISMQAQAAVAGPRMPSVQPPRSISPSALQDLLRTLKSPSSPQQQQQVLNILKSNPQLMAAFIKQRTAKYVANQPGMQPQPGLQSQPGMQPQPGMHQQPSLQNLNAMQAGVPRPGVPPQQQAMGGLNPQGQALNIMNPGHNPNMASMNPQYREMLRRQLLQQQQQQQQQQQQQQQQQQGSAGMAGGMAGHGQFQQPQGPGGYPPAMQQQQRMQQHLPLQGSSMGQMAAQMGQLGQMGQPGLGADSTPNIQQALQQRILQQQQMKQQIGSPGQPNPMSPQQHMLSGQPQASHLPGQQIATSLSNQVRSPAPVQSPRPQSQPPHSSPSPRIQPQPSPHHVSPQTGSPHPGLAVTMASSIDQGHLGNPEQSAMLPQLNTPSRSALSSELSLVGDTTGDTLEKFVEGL
method description: Induction of CBP degradation in human RS4-11 cells assessed as maximal degradation incubated for 4 hrs by Western blot assay
Type: cell-based
result type: Emax (%)
Use % as the unit, but write only the number.

Some entries whose results are on file:
molecule	target or test system	result unit	Emax
CC(=O)N1CCc2c(c(-c3cccc4cc(-c5ccc(C(=O)NC6CCN(c7ccc8c(c7)C(=O)N(C7CCC(=O)NC7=O)C8=O)CC6)nc5)ncc34)nn2C2CCOCC2)C1 (stereo not drawn)	UniProt Q92793	%	99
CC(=O)N1CCc2c(c(-c3cccc4cc(-c5ccc(C(=O)NCCCCCCNc6cccc7c6C(=O)N(C6CCC(=O)NC6=O)C7=O)nc5)ncc34)nn2C2CCOCC2)C1 (stereo not drawn)	UniProt Q92793	%	99

Now for another entry.
Query :: Determine from records and report Emax for CC(=O)N1CCc2c(c(-c3cccc4cc(-c5ccc(C(=O)NCCCc6cccc7c6CN(C6CCC(=O)NC6=O)C7=O)nc5)ncc34)nn2C2CCOCC2)C1 (stereo not drawn)
Result :: 95

* * *

target or test system: Histone acetyltransferase p300 (Homo sapiens, UniProt Q09472)
Sequence (Q09472 whole entry): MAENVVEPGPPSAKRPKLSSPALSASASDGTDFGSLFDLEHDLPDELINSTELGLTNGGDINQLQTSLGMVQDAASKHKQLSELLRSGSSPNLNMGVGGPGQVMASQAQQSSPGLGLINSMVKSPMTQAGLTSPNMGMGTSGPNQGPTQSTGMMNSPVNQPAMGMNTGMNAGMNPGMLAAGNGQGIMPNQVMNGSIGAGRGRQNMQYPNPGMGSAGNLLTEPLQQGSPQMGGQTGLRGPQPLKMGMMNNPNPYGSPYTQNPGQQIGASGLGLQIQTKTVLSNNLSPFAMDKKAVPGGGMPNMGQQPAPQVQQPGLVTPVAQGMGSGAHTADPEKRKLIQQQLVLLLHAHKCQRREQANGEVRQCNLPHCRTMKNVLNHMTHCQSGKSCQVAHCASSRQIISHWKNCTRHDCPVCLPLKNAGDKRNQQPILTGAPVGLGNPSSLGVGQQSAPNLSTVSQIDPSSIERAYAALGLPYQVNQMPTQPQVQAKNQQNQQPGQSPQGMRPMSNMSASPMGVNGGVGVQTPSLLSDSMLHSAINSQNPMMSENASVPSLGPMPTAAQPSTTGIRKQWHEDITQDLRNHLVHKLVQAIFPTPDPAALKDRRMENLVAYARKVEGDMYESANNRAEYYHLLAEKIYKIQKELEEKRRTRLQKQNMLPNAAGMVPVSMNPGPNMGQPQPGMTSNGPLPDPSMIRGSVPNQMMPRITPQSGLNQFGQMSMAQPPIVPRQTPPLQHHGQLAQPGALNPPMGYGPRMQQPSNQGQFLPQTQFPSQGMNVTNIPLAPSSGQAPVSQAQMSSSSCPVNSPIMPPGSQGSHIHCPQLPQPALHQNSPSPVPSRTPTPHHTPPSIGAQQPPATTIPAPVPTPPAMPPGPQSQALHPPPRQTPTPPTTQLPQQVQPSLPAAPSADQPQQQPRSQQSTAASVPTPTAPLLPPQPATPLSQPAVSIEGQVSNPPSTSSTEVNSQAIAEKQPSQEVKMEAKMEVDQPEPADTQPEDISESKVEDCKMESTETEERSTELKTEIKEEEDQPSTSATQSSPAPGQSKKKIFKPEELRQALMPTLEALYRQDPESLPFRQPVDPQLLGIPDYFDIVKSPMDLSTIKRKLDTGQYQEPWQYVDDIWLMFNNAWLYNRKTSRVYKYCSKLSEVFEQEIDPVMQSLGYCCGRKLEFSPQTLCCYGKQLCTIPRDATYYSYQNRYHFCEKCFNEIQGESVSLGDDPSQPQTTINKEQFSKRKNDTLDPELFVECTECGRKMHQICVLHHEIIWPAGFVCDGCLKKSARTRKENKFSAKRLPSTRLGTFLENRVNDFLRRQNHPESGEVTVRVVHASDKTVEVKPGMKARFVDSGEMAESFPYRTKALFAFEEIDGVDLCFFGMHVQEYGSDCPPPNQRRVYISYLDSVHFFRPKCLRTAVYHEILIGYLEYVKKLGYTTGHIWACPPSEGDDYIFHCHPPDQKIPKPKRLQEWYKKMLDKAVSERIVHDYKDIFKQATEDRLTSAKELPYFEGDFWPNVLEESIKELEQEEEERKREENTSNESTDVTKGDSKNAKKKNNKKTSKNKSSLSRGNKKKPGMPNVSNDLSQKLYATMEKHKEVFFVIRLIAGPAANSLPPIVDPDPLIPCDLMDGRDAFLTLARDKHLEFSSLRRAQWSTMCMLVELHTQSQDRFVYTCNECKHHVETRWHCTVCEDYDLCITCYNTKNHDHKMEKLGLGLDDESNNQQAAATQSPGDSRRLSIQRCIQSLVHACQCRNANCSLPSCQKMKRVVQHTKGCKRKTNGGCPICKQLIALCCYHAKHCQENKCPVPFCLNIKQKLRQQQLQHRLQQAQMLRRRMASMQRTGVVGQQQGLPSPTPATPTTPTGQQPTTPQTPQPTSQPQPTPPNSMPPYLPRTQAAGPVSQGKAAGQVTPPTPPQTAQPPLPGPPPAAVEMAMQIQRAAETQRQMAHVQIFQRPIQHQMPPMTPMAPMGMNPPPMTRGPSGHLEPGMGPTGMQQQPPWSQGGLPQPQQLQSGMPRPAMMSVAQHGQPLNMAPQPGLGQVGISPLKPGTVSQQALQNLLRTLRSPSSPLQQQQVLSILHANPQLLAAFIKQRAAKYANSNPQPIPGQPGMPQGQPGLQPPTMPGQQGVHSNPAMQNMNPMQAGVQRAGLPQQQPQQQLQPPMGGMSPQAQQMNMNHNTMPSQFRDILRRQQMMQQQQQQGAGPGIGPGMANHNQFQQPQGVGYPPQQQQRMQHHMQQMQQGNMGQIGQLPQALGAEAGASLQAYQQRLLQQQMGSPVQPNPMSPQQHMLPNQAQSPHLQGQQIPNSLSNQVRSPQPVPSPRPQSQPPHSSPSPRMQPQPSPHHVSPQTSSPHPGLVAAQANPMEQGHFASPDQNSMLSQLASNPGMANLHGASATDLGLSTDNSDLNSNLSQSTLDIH
method description: Induction of p300 degradation in human RS4-11 cells incubated for 4 hrs by Western blot assay
Assay type: cell-based
result type: EC50 (nM)
Use nM as the unit, but write only the number.

compound	reported value
CC(=O)N1CCc2c(c(-c3cccc4cc(-c5ccc(C(=O)NC6CCN(c7ccc8c(c7)CN(C7CCC(=O)NC7=O)C8=O)CC6)nc5)ncc34)nn2C2CCOCC2)C1 (configuration not stated)	0.2
CC(=O)N1CCc2c(c(-c3cccc4cc(-c5ccc(C(=O)NCCCCCCCNc6cccc7c6C(=O)N(C6CCC(=O)NC6=O)C7=O)nc5)ncc34)nn2C2CCOCC2)C1 (configuration not stated)	2.3
CC(=O)N1CCc2c(c(-c3cccc4cc(-c5ccc(C(=O)NCCCCCNc6cccc7c6C(=O)N(C6CCC(=O)NC6=O)C7=O)nc5)ncc34)nn2C2CCOCC2)C1 (configuration not stated)	0.3
CC(=O)N1CCc2c(c(-c3cccc4cc(-c5ccc(C(=O)NCCCNc6cccc7c6C(=O)N(C6CCC(=O)NC6=O)C7=O)nc5)ncc34)nn2C2CCOCC2)C1 (configuration not stated)	0.7

Query :: Determine from records and report EC50 for CC(=O)N1CCc2c(c(-c3cccc4cc(-c5ccc(C(=O)N6CCN(c7cccc8c7C(=O)N(C7CCC(=O)NC7=O)C8=O)CC6)nc5)ncc34)nn2C2CCOCC2)C1 (configuration not stated)
Result :: 1.6

Query :: Determine from records and report EC50 for CC(=O)N1CCc2c(c(-c3cccc4cc(-c5ccc(C(=O)NCCCCCCNc6cccc7c6C(=O)N(C6CCC(=O)NC6=O)C7=O)nc5)ncc34)nn2C2CCOCC2)C1 (configuration not stated)
Result :: 0.6

Query :: Determine from records and report EC50 for CC(=O)N1CCc2c(c(-c3cccc4cc(-c5ccc(C(=O)N6CC7(CCC(Nc8cccc9c8C(=O)N(C8CCC(=O)NC8=O)C9=O)CC7)C6)nc5)ncc34)nn2C2CCOCC2)C1 (configuration not stated)
Result :: 25

Query :: Determine from records and report EC50 for CC(=O)N1CCc2c(c(-c3cccc4cc(-c5ccc(C(=O)NCCCCNc6cccc7c6C(=O)N(C6CCC(=O)NC6=O)C7=O)nc5)ncc34)nn2C2CCOCC2)C1 (configuration not stated)
Result :: 0.8

Query :: Determine from records and report EC50 for CC(=O)N1CCc2c(c(-c3cccc4cc(-c5ccc(C(=O)N6CCC7(CC6)CC(Nc6cccc8c6C(=O)N(C6CCC(=O)NC6=O)C8=O)C7)nc5)ncc34)nn2C2CCOCC2)C1 (configuration not stated)
Result :: 9.3
